Target: PDE10 (Homo sapiens (Human), UniProt Q9Y233)
Sequence (Q9Y233 whole entry): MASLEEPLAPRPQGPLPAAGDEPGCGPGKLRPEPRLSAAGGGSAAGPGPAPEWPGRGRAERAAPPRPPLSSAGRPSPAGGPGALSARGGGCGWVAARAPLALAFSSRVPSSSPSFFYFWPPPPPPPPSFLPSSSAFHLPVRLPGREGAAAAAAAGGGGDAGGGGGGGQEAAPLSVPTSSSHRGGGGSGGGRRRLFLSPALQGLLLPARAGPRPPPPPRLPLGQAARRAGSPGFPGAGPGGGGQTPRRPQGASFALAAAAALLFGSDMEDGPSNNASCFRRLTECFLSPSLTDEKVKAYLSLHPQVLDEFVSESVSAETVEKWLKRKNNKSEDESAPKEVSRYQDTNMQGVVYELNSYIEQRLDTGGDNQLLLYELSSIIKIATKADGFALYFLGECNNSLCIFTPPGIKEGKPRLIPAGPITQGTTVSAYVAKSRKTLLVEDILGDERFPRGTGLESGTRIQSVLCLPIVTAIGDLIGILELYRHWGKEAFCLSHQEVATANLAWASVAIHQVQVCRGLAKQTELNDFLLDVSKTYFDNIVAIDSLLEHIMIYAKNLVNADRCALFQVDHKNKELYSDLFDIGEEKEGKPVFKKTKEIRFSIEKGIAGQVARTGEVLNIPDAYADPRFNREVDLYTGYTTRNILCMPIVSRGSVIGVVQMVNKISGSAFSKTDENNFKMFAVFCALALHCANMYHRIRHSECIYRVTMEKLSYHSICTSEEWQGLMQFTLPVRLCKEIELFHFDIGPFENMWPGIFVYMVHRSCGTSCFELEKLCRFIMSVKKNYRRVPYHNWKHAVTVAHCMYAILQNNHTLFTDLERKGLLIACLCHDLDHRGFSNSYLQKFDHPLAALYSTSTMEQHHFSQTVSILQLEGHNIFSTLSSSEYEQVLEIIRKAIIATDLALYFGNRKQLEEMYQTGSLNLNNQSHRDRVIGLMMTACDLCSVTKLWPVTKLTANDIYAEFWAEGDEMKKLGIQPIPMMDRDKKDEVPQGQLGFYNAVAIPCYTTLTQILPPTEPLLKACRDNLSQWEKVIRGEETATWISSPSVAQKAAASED
Test: PDE isozyme selectivity, IMAP assay
Assay type: biochemical
Settings: PDE10, substrate cAMP
pIC50: −log10 of the molar value.
quantity-kind: pIC50

Which measured pIC50 value corresponds to CC(C)(C)C1=NN(c2ccc(C(=O)O)cc2)C(c2ccc(Cl)cc2Cl)C1 (stereo not shown) ?
< 4.30

----------
Tested on: DU-145
Assay: Tumor cell growth inhibition panel
Type: cell-based
Conditions: Homo sapiens, Prostate
quantity-kind: pIC50
Give bare numbers, as −log10 of the molar value.

Name the recorded pIC50 for CC(C)(C)C1=NN(c2ccc(C(=O)O)cc2)C(c2ccc(Cl)cc2Cl)C1 (stereo not shown) .
4.22

All figures here come from patent US9388139B2.
